Data provenance: PubChem BioAssay AID1259407

Test system: CCRIS mutagenicity, Ames/micronucleus/aberration tests
Experiment: CCRIS mutagenicity studies
Conditions: Test System: AMES SALMONELLA TYPHIMURIUM; Strain/Indicator: TA98; Metabolic Activation: HAMSTER, LIVER, S-9, AROCLOR 1254 (10%); Method: PREINCUBATION
Activity calls are given as the source filed them. No rule for the calls is given here.
Entry note: the call must match one of y (active), n (inactive)

Here's what some known entries look like.
| molecule | classification |
| --- | --- |
| Nc1ccc(N)c2c1C(=O)c1c(N)ccc(N)c1C2=O | y |
| Oc1c(Cl)c(Cl)cc(Cl)c1Cl | n |
| CC(=O)Nc1ccc(N=Nc2cc(C)ccc2O)cc1 | y |
| CC1CC(OC(=O)c2ccccc2O)CC(C)(C)C1 (centres undefined) | n |

Called result for `O=Cc1ccccc1Cl`
n

Called result for `Nc1ccccc1C(=O)O`
n

Called result for `Nc1c2ccccc2nc2ccccc12`
n

Called result for `CCCC(=O)c1cc(O)c(O)cc1O`
y

Called result for `COc1ccc(C=O)cc1OC`
n

Called result for `Nc1ccccn1`
n

Called result for CCCCCCC(C)COC(=O)c1ccccc1C(=O)OCC(C)CCCCCC (centres undefined)
n

Called result for `CCCCCCCCCCCOC(=O)c1ccccc1C(=O)OCCCCCCCCCCC`
n

Called result for `O=C1c2ccccc2-c2ccc3c4c(ccc1c24)-c1ccccc1C3=O`
n

Called result for `C=C(C)C(=O)OCCCC`
n

* * *

Tested on: CCRIS mutagenicity, Ames/micronucleus/aberration tests
Assay: CCRIS mutagenicity studies
Settings: Test System: AMES SALMONELLA TYPHIMURIUM; Strain/Indicator: TA98; Metabolic Activation: HAMSTER, LIVER, S-9, AROCLOR 1254 (10%); Method: STANDARD PLATE
Activity calls are given as the source filed them. How the calls were made is not given here.
Entry note: the call must match one of 1 (yes) = active, 0 (no) = inactive

| smiles.structure | system.name | classification |
| --- | --- | --- |
| Nc1ccn([C@@H]2C=C(CO)[C@@H](O)[C@H]2O)c(=O)n1 | CCRIS mutagenicity, Ames/micronucleus/aberration tests | 0 (no) |
| Nc1c(Oc2ccccc2)cc(O)c2c1C(=O)c1ccccc1C2=O | CCRIS mutagenicity, Ames/micronucleus/aberration tests | 1 (yes) |
| O=C1C=CC(=O)N1c1ccc(Cc2ccc(N3C(=O)C=CC3=O)cc2)cc1 | CCRIS mutagenicity, Ames/micronucleus/aberration tests | 0 (no) |

Called result for `CCCCCCCCCCCC(=O)OOC(=O)CCCCCCCCCCC`
0 (no)

Called result for `CCN(CC)c1ccc2nc3ccc(=[N+](CC)CC)cc-3oc2c1`
0 (no)

* * *

System: CCRIS mutagenicity, Ames/micronucleus/aberration tests
Test: CCRIS mutagenicity studies
Settings: Test System: AMES SALMONELLA TYPHIMURIUM; Strain/Indicator: TA100; Metabolic Activation: RAT, LIVER, S-9, PHENOBARBITAL; Method: STANDARD PLATE
Activity calls are given as the source filed them. The rule behind the calls is not given here.
Entry note: the call must match one of YES for active, NO for inactive

Here's what some known entries look like.
| compound | classification |
| --- | --- |
| CCn1cc(C(=O)O)c(=O)c2cc(F)c(N3CCNC(C)C3)c(F)c21 (configuration not stated) | NO |
| O=C(O)CC(O)(CC(=O)O)C(=O)O | NO |
| O=S1OCC2C(CO1)C1(Cl)C(Cl)=C(Cl)C2(Cl)C1(Cl)Cl (configuration not stated) | NO |
| COc1ccc2c(OC)c3ccoc3nc2c1OC | YES |
| O=C/C(=C(\Cl)C(=O)O)C(Cl)Cl | NO |
| c1cc(-c2ccncc2)ccn1 | NO |

Attention now turns to another entry.
Called result for C1=CC2OC2C=C1 (configuration not stated)
YES

* * *

System: CCRIS mutagenicity, Ames/micronucleus/aberration tests
Experiment: CCRIS mutagenicity studies
Conditions: Test System: AMES SALMONELLA TYPHIMURIUM; Strain/Indicator: TA98; Metabolic Activation: RAT, LIVER, S-9, PHENOBARBITAL AND 5,6-BENZOFLAVONE; Method: PREINCUBATION
Activity calls are given as the source filed them. How the calls were made is not given here.
Entry note: the call must match one of active, inactive

Called result for `OC1c2ccccc2Oc2ccccc21`
active

Called result for `C[C@H]1COc2c(C3(N)CC3)c(F)cc3c(=O)c(C(=O)O)cn1c23`
inactive

Called result for `CC(=O)c1cccc(N=Nc2ccc(N)c(C(C)=O)c2C)c1C`
inactive

Called result for `Nc1ccc(CO)c([N+](=O)[O-])c1`
active

Called result for `O=Cc1c([N+](=O)[O-])cccc1[N+](=O)[O-]`
inactive

Called result for `O=C1C=C(S(=O)(=O)O)c2ccccc2C1=O`
inactive

Called result for `Nc1cc([N+](=O)[O-])ccc1CO`
active

Called result for `Cc1oc(=O)oc1COC(=O)[C@@H]1N2C(=O)[C@@H](NC(=O)[C@H](N)c3ccccc3)[C@H]2SC1(C)C`
inactive

Called result for COC(=O)C1=C(C)NC(C)=C(C(=O)OC/C=C/c2ccccc2)C1c1cccc([N+](=O)[O-])c1 (centres undefined)
inactive

Called result for `O=c1c2cc(O)ccc2oc2cc(O)cc(O)c12`
inactive

Called result for `Nc1cccc(N)c1C(=O)O`
active

* * *

Test system: CCRIS mutagenicity, Ames/micronucleus/aberration tests
Experiment: CCRIS mutagenicity studies
Conditions: Test System: AMES SALMONELLA TYPHIMURIUM; Strain/Indicator: TA1538; Metabolic Activation: RAT, LIVER, S-9, AROCLOR 1254; Method: STANDARD PLATE
Active and inactive are the calls of the source. The rule behind the calls is not given here.
Entry note: the call must match one of t = active, f = inactive

Here's what some known entries look like.
| compound | classification |
| --- | --- |
| O=C(O)c1ccccc1 | f |
| CCCCC(CC)COC(=O)c1ccccc1C(=O)OCC(CC)CCCC (stereo not drawn) | f |

Attention now turns to another entry.
Called result for `CCCCOc1cc(N=Nc2ccc(NCCO)cc2NCCO)ccc1N=Nc1c(S(=O)(=O)O)cc2ccc(N)cc2c1O`
t

* * *

Test system: CCRIS mutagenicity, Ames/micronucleus/aberration tests
Experiment: CCRIS mutagenicity studies
Settings: Test System: AMES SALMONELLA TYPHIMURIUM; Strain/Indicator: TA97; Metabolic Activation: NONE; Method: PREINCUBATION
Calls of active or inactive are those of the source. The rule behind the calls is not given here.
recorded.metric: mutagenic call

Observe how each entry below is paired with its result.
| compound | system.name | mutagenic call |
| --- | --- | --- |
| CN1CCC(CN2c3ccccc3Sc3ccccc32)C1 (stereo not drawn) | CCRIS mutagenicity, Ames/micronucleus/aberration tests | inactive; negative |
| COC(=O)[C@H]1[C@H]2C[C@@H]3c4[nH]c5cc(OC)ccc5c4CCN3C[C@H]2C[C@@H](OC(=O)c2cc(OC)c(OC)c(OC)c2)[C@@H]1OC | CCRIS mutagenicity, Ames/micronucleus/aberration tests | inactive; negative |
| CCCCCCCC/C=C\CCCCCCCC(=O)O | CCRIS mutagenicity, Ames/micronucleus/aberration tests | inactive; negative |
| CCCCCCCCCCCC[S][Sn]([CH2]CCC)([CH2]CCC)[S]CCCCCCCCCCCC | CCRIS mutagenicity, Ames/micronucleus/aberration tests | inactive; negative |
| COc1cc(OC)c2c(=O)c3c(O)ccc(OC)c3oc2c1 | CCRIS mutagenicity, Ames/micronucleus/aberration tests | inactive; negative |
| Cc1c(N=C=O)cccc1N=C=O | CCRIS mutagenicity, Ames/micronucleus/aberration tests | inactive; negative |

Turning to the following compound.
Requested read-out: mutagenic call. Entry: `CC(C)C(C)(C)C(C)(C)C(C)(C)S`
inactive; negative

* * *

System: CCRIS mutagenicity, Ames/micronucleus/aberration tests
Experiment: CCRIS mutagenicity studies
Details: Test System: AMES SALMONELLA TYPHIMURIUM; Strain/Indicator: TA1535; Metabolic Activation: NONE; Method: STANDARD PLATE
The source made the active and inactive calls. How the calls were made is not given here.
Entry note: the call must match one of active, inactive

Here's what some known entries look like.
| compound | classification |
| --- | --- |
| COC(=O)[C@H]1[C@H]2C[C@@H]3c4[nH]c5cc(OC)ccc5c4CCN3C[C@H]2C[C@@H](OC(=O)c2cc(OC)c(OC)c(OC)c2)[C@@H]1OC | inactive |
| COP(=S)(OC)Oc1ccc(Sc2ccc(OP(=S)(OC)OC)cc2)cc1 | active |
| O=[N+]([O-])C1=Cc2cccc3c2c1cc1ccc2ccccc2c13 | inactive |
| Cc1cccc(Nc2ccncc2S(=O)(=O)NC(=O)NC(C)C)c1 | inactive |
| CCC1(c2ccccc2)C(=O)N=C(O)NC1=O (centres undefined) | active |
| O=C/C=C/C=C\c1ccc([N+](=O)[O-])cc1 | active |
| [Cl][Fe]([Cl])[Cl] | inactive |
| NCCN1CCNCC1 | inactive |

Called result for `c1cscn1`
inactive

Called result for `CC(=O)OC(C)=O`
inactive
